Sourced from patent US7119115B2

Biological target: Tubulin (Sus scrofa, UniProt P02550+P02554)
Construct: Tubulin is purified from pig brain according to published methods
Sequence (P02550 whole entry): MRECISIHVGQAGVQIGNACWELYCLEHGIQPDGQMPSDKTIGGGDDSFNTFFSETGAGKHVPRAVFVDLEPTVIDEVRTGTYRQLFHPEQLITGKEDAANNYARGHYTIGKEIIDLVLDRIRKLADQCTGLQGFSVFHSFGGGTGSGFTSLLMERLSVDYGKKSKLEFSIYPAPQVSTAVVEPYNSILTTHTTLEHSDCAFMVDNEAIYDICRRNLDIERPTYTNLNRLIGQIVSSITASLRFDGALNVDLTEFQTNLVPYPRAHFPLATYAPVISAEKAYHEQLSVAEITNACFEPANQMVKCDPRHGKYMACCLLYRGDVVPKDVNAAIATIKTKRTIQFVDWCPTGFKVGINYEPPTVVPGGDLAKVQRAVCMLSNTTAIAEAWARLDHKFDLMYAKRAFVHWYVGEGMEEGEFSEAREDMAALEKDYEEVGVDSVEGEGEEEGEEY
Sequence (P02554 whole entry): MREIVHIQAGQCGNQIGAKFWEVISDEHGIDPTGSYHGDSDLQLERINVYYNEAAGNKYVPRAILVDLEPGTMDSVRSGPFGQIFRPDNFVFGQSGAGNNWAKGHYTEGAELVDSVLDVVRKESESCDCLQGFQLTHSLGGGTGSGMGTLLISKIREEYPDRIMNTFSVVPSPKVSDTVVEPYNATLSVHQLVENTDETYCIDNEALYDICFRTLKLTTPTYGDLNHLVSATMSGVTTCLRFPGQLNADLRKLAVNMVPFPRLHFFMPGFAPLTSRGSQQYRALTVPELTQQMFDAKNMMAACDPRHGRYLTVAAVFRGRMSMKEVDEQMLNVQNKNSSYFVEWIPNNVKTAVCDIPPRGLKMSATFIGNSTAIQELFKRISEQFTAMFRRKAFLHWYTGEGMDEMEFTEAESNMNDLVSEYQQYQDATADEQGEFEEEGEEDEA
Assay: Evaluation of the inhibition of tubulin polymerization (turbidimetry at 350 nm)
Conditions: concentration that inhibits the rate of polymerization by 50%; pig brain tubulin 10 μM
Experimental: Briefly, the brains are ground and centrifuged in an extraction buffer. […] The polymerization of tubulin to microtubules is monitored by turbidimetry as follows: the tubulin is adjusted to a concentration of 10 μM (1 mg/ml) in RB/2 30% glycerol buffer to which 1 mM GTP and 6 mM MgCl2 are added. […] The increase in the turbidity of the solution is monitored at 350 nm. […]
MEASURED PROPERTY: IC50 (nM)

As a guide, the following entries are already answered.
COMPOUND	IC50 [nM]
N#Cc1n[nH]c2c1C=CC(c1ccccc1)(c1ccccc1)C2	23000
CCOC(=O)c1n[nH]c2c1C=CC(c1ccccc1)(c1ccccc1)C2C (stereo not shown)	1500
C1=CC(c2ccccc2)(c2ccccc2)Cc2[nH]nc(-c3cccnc3)c21	6000
COCCO/N=C(\c1n[nH]c2c1C=CC(c1ccccc1)(c1ccccc1)C2)C1CC1	1800
O=C(c1n[nH]c2c1C=CC(c1ccccc1)(c1ccccc1)C2)N1CC1	4500

I. CON=C(c1[nH]nc2c1C=CC(c1ccccc1)(c1ccccc1)C2)C1CC1
II. C=CCON=C(c1n[nH]c2c1C=CC(c1ccccc1)(c1ccccc1)C2)C1CCC1 (single isomer, unassigned)
III. C1=CC(c2ccccc2)(c2ccccc2)Cc2[nH]nc(/C(=N/OCc3ccccc3)C3CC3)c21
IV. CCOC(=O)c1n[nH]c2c1C=CC(c1ccccc1)(c1ccc(F)cc1)C2 (single isomer, unassigned) [Example 10-3C]
### Prompt Please list the entries, largest IC50 first. List the labels, following the order given in the request.
### Response III, II, IV, I
